B1: CPEB3 Ribozyme (parent)
chain: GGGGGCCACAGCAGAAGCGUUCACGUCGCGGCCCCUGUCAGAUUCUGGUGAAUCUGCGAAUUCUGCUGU

# Variants of: B1
# test summary: self-cleavage, relative activity (ratio to wild type); higher = more cleavage; co-transcriptional
Threshold rule: self-cleavage greater than or equal to 0.6 is fulfilled; below that, not fulfilled.

Please review the following examples before continuing.
residue change: G14A C39G
class assignment: not fulfilled
//
residue change: U20C C35U
class assignment: not fulfilled
//
residue change: A13G G17A
class assignment: not fulfilled
//
residue change: U20A U36G
class assignment: not fulfilled
//
residue change: C29G A42G
class assignment: not fulfilled

Prompt: Assess whether reported self-cleavage for C32U U46G sits at 0.6 or higher.
Completion: fulfilled

Prompt: Same question for C22A U55A please.
Completion: not fulfilled

Prompt: Same question for C22U U53G please.
Completion: not fulfilled

Prompt: Same question for A13G U38A please.
Completion: fulfilled

Prompt: Same question for A42C U61A please.
Completion: fulfilled

Prompt: Same question for G11C G56U please.
Completion: not fulfilled

Prompt: Same question for U36C C66G please.
Completion: fulfilled

Prompt: Same question for G11C G28U please.
Completion: not fulfilled

Prompt: Same question for U53C A59G please.
Completion: fulfilled

Prompt: Same question for G3C C22G please.
Completion: not fulfilled

Prompt: Same question for C24A G48U please.
Completion: fulfilled

Prompt: Same question for C22U U49C please.
Completion: not fulfilled

Source of measurements: the RNAGym collection of RNA variant scans (doi:10.7554/elife.80360)
